FYI, the data here is from patent EP4477673A1.

Documented M07e-hPD-1 cell proliferation ratio (%) at 0.01 nM across a set of binders
- test-system: human PD-1 (human, UniProt Q15116 25-288)
- Sequence (Q15116 25-288 limits assumed): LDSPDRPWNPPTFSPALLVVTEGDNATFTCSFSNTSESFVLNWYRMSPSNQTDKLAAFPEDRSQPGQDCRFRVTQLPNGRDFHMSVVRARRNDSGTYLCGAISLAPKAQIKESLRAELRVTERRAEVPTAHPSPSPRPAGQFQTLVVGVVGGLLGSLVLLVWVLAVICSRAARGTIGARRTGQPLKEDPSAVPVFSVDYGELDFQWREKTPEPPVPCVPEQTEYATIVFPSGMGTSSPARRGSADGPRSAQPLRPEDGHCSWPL
- measurement-protocol: cell-based or functional assay
measured-quantity: M07e-hPD-1 cell proliferation ratio (%) at 0.01 nM

binder	unit-name	value
A-PC (Fc fusion, also called positive control molecule A-PC; PD-1-IL-2v; not shown: IgG1 hinge (C220S) + Fc Knob chain (L234A, L235A, S354C, T366W, EU); D356/L358 or E356/M358 ver; IgG1 hinge (C220S) + Fc Hole chain (L234A, L235A, Y349C, T366S, L368A, Y407V; may have H435R, Y436F; EU)) chain (part 1 of 2): EVQLVESGGGLVQPGGSLRLSCAASGLTFSDYSMSWYRQAPGKGRELVAIISGSGVITHYVDSVKGRFTISRDNAKNTLYLQMRSLRAEDTAVYYCRAVSDWEDYWGQGTQVTVSS chain (part 2 of 2): GGGGSGGGGSGGGGSAPASSSTKKTQLQLEHLLLDLQMILQGISNYKNPKLTRMLTAKFYMPKKATELKHLQCLEEELKPLEEVLQGAQSKNFHLRPRDLISNINVIVLELKGSETTFMCEYADETATIVEFLNRWITFAQSIISTLT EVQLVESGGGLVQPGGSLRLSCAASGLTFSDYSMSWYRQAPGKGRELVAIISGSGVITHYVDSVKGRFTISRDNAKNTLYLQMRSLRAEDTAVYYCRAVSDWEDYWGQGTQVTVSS	%	29.3
A-N88D-M26 (Fc fusion, not shown: IgG1 hinge (C220S) + Fc Knob chain as in A-N88D; IgG1 hinge (C220S) + Fc Hole chain as in A-N88D) chain (part 1 of 2): EVQLVESGGGLVQPGGSLRLSCAASGLTFSSYSMSWYRQAPGKGRELVAIISGSGGITHYVDSVKGRFTISRDNAKNTLYLQMRSLRAEDTAVYYCRAVSDWEDYWGQGTQVTVSS chain (part 2 of 2): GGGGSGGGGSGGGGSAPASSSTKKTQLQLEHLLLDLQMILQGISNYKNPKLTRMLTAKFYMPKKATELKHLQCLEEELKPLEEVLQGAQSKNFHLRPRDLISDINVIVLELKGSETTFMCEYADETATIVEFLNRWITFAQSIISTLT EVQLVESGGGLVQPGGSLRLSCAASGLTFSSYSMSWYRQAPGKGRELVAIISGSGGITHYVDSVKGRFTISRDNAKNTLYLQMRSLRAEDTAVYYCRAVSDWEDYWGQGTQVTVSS	%	9.3
A-N88D-M28 (Fc fusion, not shown: IgG1 hinge (C220S) + Fc Knob chain as in A-N88D; IgG1 hinge (C220S) + Fc Hole chain as in A-N88D) chain (part 1 of 2): EVQLVESGGGLVQPGGSLRLSCAASGLTFSSYSMSWYRQAPGKGRELVAIISGSGGITHYADSVKGRFTISRDNAKNTLYLQMRSLRAEDTAVYYCRAVSDWQDYWGQGTQVTVSS chain (part 2 of 2): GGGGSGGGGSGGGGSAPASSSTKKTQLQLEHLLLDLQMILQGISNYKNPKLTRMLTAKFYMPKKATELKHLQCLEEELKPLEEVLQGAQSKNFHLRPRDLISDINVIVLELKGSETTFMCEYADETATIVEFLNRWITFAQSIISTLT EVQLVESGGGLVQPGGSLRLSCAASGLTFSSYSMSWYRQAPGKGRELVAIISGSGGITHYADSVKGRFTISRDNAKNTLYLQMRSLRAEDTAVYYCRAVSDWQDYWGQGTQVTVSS	%	9.4
A-N88D-M27 (Fc fusion, not shown: IgG1 hinge (C220S) + Fc Knob chain as in A-N88D; IgG1 hinge (C220S) + Fc Hole chain as in A-N88D) chain (part 1 of 2): EVQLVESGGGLVQPGGSLRLSCAASGLTFSSYSMSWYRQAPGKGRELVAIISGSGGITHYVDSVKGRFTISRDNAKNTLYLQMRSLRAEDTAVYYCRAVSDWQDYWGQGTQVTVSS chain (part 2 of 2): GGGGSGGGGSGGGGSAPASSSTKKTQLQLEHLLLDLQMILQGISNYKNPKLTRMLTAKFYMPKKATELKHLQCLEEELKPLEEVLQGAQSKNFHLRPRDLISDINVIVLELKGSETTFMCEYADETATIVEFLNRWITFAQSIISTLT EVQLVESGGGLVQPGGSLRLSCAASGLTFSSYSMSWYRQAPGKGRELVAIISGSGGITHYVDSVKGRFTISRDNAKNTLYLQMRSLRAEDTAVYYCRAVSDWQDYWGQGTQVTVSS	%	4.9
